Tested on: peripheral blood mononuclear cells (PBMCs) of healthy donors
Assay: AnnexinV/PI assay on PBMCs of healthy donors
Assay type: cell-based
Settings: Homo sapiens, PBMC; 24 h incubation, 0.01-100 μM, 5*10^6 cells/ml, normalized to DMSO control; read-out: AnnexinV/PI assay EC50 PBMCs
Kindly apply the following: met if EC50 is less than 50 µM, not met in every other case.

Examples with answers:
compound="O=C(Oc1ccc(CCl)cc1)c1ccccc1 [B12, 4-(chloromethyl)phenyl benzoate]" category_label=met
compound="O=C(Oc1ccc(CO[N+](=O)[O-])cc1)c1ccccc1 [B9, 4-((nitrooxy)methyl)phenyl benzoate]" category_label="not met"
compound="CC(=O)Oc1ccccc1C(=O)Oc1ccc(CO[N+](=O)[O-])cc1 [B1, reference compound]" category_label=met
compound=O=C(Oc1ccc(CO[N+](=O)[O-])cc1)c1cc(C(F)(F)F)ccc1Cl category_label="not met"
compound=CC(=O)Oc1cc(C)ccc1C(=O)Oc1ccc(CO[N+](=O)[O-])cc1 category_label="not met"
compound="O=C(Oc1ccc(CO[N+](=O)[O-])cc1)c1cccc2ccccc12 [B13, 4-((nitrooxy)methyl)phenyl 1-naphthoate]" category_label="not met"

Alright, here's another compound for you.
INPUT: EC50 strictly < 50 µM for this compound? `O=C(Oc1ccc(CO[N+](=O)[O-])cc1)C1CCCCC1`
OUTPUT: met
